Cited source: PubChem BioAssay AID1963849

Test system: 299254-011-R-J1-PDC complex spheroid viability
Test: Anticancer human tumor 299254-011-R-J1-PDC patient-derived melanoma cell line growth inhibition [POLQ]
Details: second compound 0.0316 µM; first compound 0.01 µM; stronger effect = lower value
PROPERTY NAME: viability, T/C (%)

COMPOUND	TGT	READOUT VALUE
COc1cccc(OCCCN)c1-c1cc(Nc2cnc(C#N)cn2)n[nH]1 + Nc1ccc(C#CCN(C(=O)Cc2ncc(C(F)(F)F)cc2C(F)(F)F)c2ccc(F)cc2)nn1	299254-011-R-J1-PDC complex spheroid viability	129
CCc1c2c(nc3ccc(O)cc13)-c1cc3c(c(=O)n1C2)COC(=O)[C@]3(O)CC + Cc1cccc(N(C)C(=O)C2C(O)CCN2c2nc(C)cc(C(F)(F)F)c2C#N)c1	299254-011-R-J1-PDC complex spheroid viability	79.2
C=CCn1c(=O)c2cnc(Nc3ccc(N4CCN(C)CC4)cc3)nc2n1-c1cccc(C(C)(C)O)n1 + Nc1ccc(C#CCN(C(=O)Cc2ncc(C(F)(F)F)cc2C(F)(F)F)c2ccc(F)cc2)nn1	299254-011-R-J1-PDC complex spheroid viability	85
Cn1ncnc1[C@H]1c2n[nH]c(=O)c3cc(F)cc(c23)N[C@@H]1c1ccc(F)cc1 + Nc1ccc(C#CCN(C(=O)Cc2ncc(C(F)(F)F)cc2C(F)(F)F)c2ccc(F)cc2)nn1	299254-011-R-J1-PDC complex spheroid viability	98.6
C=CCn1c(=O)c2cnc(Nc3ccc(N4CCN(C)CC4)cc3)nc2n1-c1cccc(C(C)(C)O)n1 + Cc1cccc(N(C)C(=O)C2C(O)CCN2c2nc(C)cc(C(F)(F)F)c2C#N)c1	299254-011-R-J1-PDC complex spheroid viability	119
Cn1ncnc1[C@H]1c2n[nH]c(=O)c3cc(F)cc(c23)N[C@@H]1c1ccc(F)cc1 + Cc1cccc(N(C)C(=O)C2C(O)CCN2c2nc(C)cc(C(F)(F)F)c2C#N)c1	299254-011-R-J1-PDC complex spheroid viability	110
Cn1ncnc1[C@H]1c2n[nH]c(=O)c3cc(F)cc(c23)N[C@@H]1c1ccc(F)cc1 + COC1C(OC(N)=O)C(O)C(Oc2ccc3c(O)c(NC(=O)c4ccc(O)c(CC=C(C)C)c4)c(=O)oc3c2C)OC1(C)C	299254-011-R-J1-PDC complex spheroid viability	98.8
CC[C@@]1(O)C(=O)OCc2c1cc1n(c2=O)Cc2cc3c(CN(C)C)c(O)ccc3nc2-1 + Nc1ccc(C#CCN(C(=O)Cc2ncc(C(F)(F)F)cc2C(F)(F)F)c2ccc(F)cc2)nn1	299254-011-R-J1-PDC complex spheroid viability	101
CC[C@@]1(O)C(=O)OCc2c1cc1n(c2=O)Cc2cc3c(CN(C)C)c(O)ccc3nc2-1 + COC1C(OC(N)=O)C(O)C(Oc2ccc3c(O)c(NC(=O)c4ccc(O)c(CC=C(C)C)c4)c(=O)oc3c2C)OC1(C)C	299254-011-R-J1-PDC complex spheroid viability	101
CCc1c2c(nc3ccc(O)cc13)-c1cc3c(c(=O)n1C2)COC(=O)[C@]3(O)CC + COC1C(OC(N)=O)C(O)C(Oc2ccc3c(O)c(NC(=O)c4ccc(O)c(CC=C(C)C)c4)c(=O)oc3c2C)OC1(C)C	299254-011-R-J1-PDC complex spheroid viability	77.5
COc1cccc(OCCCN)c1-c1cc(Nc2cnc(C#N)cn2)n[nH]1 + COC1C(OC(N)=O)C(O)C(Oc2ccc3c(O)c(NC(=O)c4ccc(O)c(CC=C(C)C)c4)c(=O)oc3c2C)OC1(C)C	299254-011-R-J1-PDC complex spheroid viability	94.9
CCc1c2c(nc3ccc(O)cc13)-c1cc3c(c(=O)n1C2)COC(=O)[C@]3(O)CC + Nc1ccc(C#CCN(C(=O)Cc2ncc(C(F)(F)F)cc2C(F)(F)F)c2ccc(F)cc2)nn1	299254-011-R-J1-PDC complex spheroid viability	85.3

====

Test system: 299254-011-R-J1-PDC complex spheroid viability
Experiment: Anticancer human tumor 299254-011-R-J1-PDC cell line growth inhibition [POLQ];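 also: spheroids exposed to drugs for one week before measurement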
Details: curve of first compound; second compound 3.16 µM
pIC50: −log10 of the molar value.
Entries and their pIC50
PROPERTY NAME: pIC50

COMPOUND	TGT	READOUT VALUE
C=CC(=O)N1CCN(c2nc(=O)n(-c3c(C)ccnc3C(C)C)c3nc(-c4c(O)cccc4F)c(F)cc23)C(C)C1 (stereo not given) + COC1C(OC(N)=O)C(O)C(Oc2ccc3c(O)c(NC(=O)c4ccc(O)c(CC=C(C)C)c4)c(=O)oc3c2C)OC1(C)C	299254-011-R-J1-PDC complex spheroid viability	< 5.00
Cn1ncnc1[C@H]1c2n[nH]c(=O)c3cc(F)cc(c23)N[C@@H]1c1ccc(F)cc1 + COC1C(OC(N)=O)C(O)C(Oc2ccc3c(O)c(NC(=O)c4ccc(O)c(CC=C(C)C)c4)c(=O)oc3c2C)OC1(C)C	299254-011-R-J1-PDC complex spheroid viability	< 7.00
CC[C@@]1(O)C(=O)OCc2c1cc1n(c2=O)Cc2cc3c(CN(C)C)c(O)ccc3nc2-1 + Cc1cccc(N(C)C(=O)C2C(O)CCN2c2nc(C)cc(C(F)(F)F)c2C#N)c1	299254-011-R-J1-PDC complex spheroid viability	< 7.00
CCCS(=O)(=O)Nc1ccc(F)c(C(=O)c2c[nH]c3ncc(-c4ccc(Cl)cc4)cc23)c1F + COC1C(OC(N)=O)C(O)C(Oc2ccc3c(O)c(NC(=O)c4ccc(O)c(CC=C(C)C)c4)c(=O)oc3c2C)OC1(C)C	299254-011-R-J1-PDC complex spheroid viability	< 5.00
O=C(Nc1ccc(O)c(NS(=O)(=O)c2ccc(F)cc2)c1)c1ccc(-c2ccccc2)cc1 + Nc1ccc(C#CCN(C(=O)Cc2ncc(C(F)(F)F)cc2C(F)(F)F)c2ccc(F)cc2)nn1	299254-011-R-J1-PDC complex spheroid viability	5.06
COc1ccc([C@@H](O)c2cc(-c3ncnc4cc(N5CCOCC5)ccc34)c(F)cc2Cl)nn1 + Nc1ccc(C#CCN(C(=O)Cc2ncc(C(F)(F)F)cc2C(F)(F)F)c2ccc(F)cc2)nn1	299254-011-R-J1-PDC complex spheroid viability	< 5.00
CCc1cc2c(N3CCc4c(cc(Cn5ccnc5)cc4-c4cn(C)nc4C(F)(F)F)C3=O)cc(C)nc2c(OC)n1 + COC1C(OC(N)=O)C(O)C(Oc2ccc3c(O)c(NC(=O)c4ccc(O)c(CC=C(C)C)c4)c(=O)oc3c2C)OC1(C)C	299254-011-R-J1-PDC complex spheroid viability	< 5.00
CCc1cc2c(N3CCc4c(cc(Cn5ccnc5)cc4-c4cn(C)nc4C(F)(F)F)C3=O)ccnc2c(OC)n1 + Cc1cccc(N(C)C(=O)C2C(O)CCN2c2nc(C)cc(C(F)(F)F)c2C#N)c1	299254-011-R-J1-PDC complex spheroid viability	< 5.00
COc1cccc2c1C(=O)c1c(O)c3c(c(O)c1C2=O)CC(O)(C(=O)CO)CC3OC1CC(N)C(O)C(C)O1 (stereo not given) + Cc1cccc(N(C)C(=O)C2C(O)CCN2c2nc(C)cc(C(F)(F)F)c2C#N)c1	299254-011-R-J1-PDC complex spheroid viability	6.25
CCCS(=O)(=O)Nc1ccc(F)c(C(=O)c2c[nH]c3ncc(-c4ccc(Cl)cc4)cc23)c1F + Cc1cccc(N(C)C(=O)C2C(O)CCN2c2nc(C)cc(C(F)(F)F)c2C#N)c1	299254-011-R-J1-PDC complex spheroid viability	< 5.00

====

System: 299254-011-R-J1-PDC complex spheroid viability
Assay: Anticancer human tumor 299254-011-R-J1-PDC cell line growth inhibition [POLQ];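 also: spheroids exposed to drugs for one week before measurement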;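 as to viability, T/C: percent viability relative to DMSO vehicle control taken as 100%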
Settings: second compound 0.1 µM; first compound 1 µM; stronger effect = lower value
Reported values of viability, T/C for individual entries

COMPOUND	TGT	viability, T/C [%]
COc1cc2cc(C(=O)CCC(=O)O)sc2cc1OC + Cc1cccc(N(C)C(=O)C2C(O)CCN2c2nc(C)cc(C(F)(F)F)c2C#N)c1	299254-011-R-J1-PDC complex spheroid viability	101
CC(C)n1c(=O)n(C)c2cnc3cc(F)c(-c4ccc(OCCCN5CCCCC5)nc4)cc3c21 + Cc1cccc(N(C)C(=O)C2C(O)CCN2c2nc(C)cc(C(F)(F)F)c2C#N)c1	299254-011-R-J1-PDC complex spheroid viability	90.1
CCc1c2c(nc3ccc(O)cc13)-c1cc3c(c(=O)n1C2)COC(=O)[C@]3(O)CC + COC1C(OC(N)=O)C(O)C(Oc2ccc3c(O)c(NC(=O)c4ccc(O)c(CC=C(C)C)c4)c(=O)oc3c2C)OC1(C)C	299254-011-R-J1-PDC complex spheroid viability	57.8

====

System: 299254-011-R-J1-PDC complex spheroid viability
Assay: Anticancer human tumor 299254-011-R-J1-PDC cell line growth inhibition [POLQ];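 also: spheroids exposed to drugs for one week before measurement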;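 as to viability, T/C: percent viability relative to DMSO vehicle control taken as 100%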
Details: second compound 0.1 µM; first compound 0.0316 µM; stronger effect = lower value
Reported viability, T/C values for a set of molecules

MOLECULE	viability, T/C
COc1cc2cc(C(=O)CCC(=O)O)sc2cc1OC + Cc1cccc(N(C)C(=O)C2C(O)CCN2c2nc(C)cc(C(F)(F)F)c2C#N)c1	98.6%
COc1ccc([C@@H](O)c2cc(-c3ncnc4cc(N5CCOCC5)ccc34)c(F)cc2Cl)nn1 + COC1C(OC(N)=O)C(O)C(Oc2ccc3c(O)c(NC(=O)c4ccc(O)c(CC=C(C)C)c4)c(=O)oc3c2C)OC1(C)C	115%
C#Cc1c(F)ccc2cc(O)cc(-c3ncc4c(N5CC6CCC(C5)N6)nc(OCC56CCCN5CC(F)C6)nc4c3F)c12 (stereo not given) + Nc1ccc(C#CCN(C(=O)Cc2ncc(C(F)(F)F)cc2C(F)(F)F)c2ccc(F)cc2)nn1	92.3%
COc1cc2cc(C(=O)CCC(=O)O)sc2cc1OC + COC1C(OC(N)=O)C(O)C(Oc2ccc3c(O)c(NC(=O)c4ccc(O)c(CC=C(C)C)c4)c(=O)oc3c2C)OC1(C)C	95.8%
CCc1cc2c(N3CCc4c(cc(Cn5ccnc5)cc4-c4cn(C)nc4C(F)(F)F)C3=O)cc(C)nc2c(OC)n1 + Nc1ccc(C#CCN(C(=O)Cc2ncc(C(F)(F)F)cc2C(F)(F)F)c2ccc(F)cc2)nn1	90.3%
